Hi there, I'd appreciate the recorded growth inhibition for every entry that follows.
assay: NCI Yeast Anticancer Drug Screen. Data for the rad50 strain (AID 155);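 note: 0% = growth of vehicle-only cultures of the same strain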; conditions: S. cerevisiae rad50 strain growth inhibition; at 11.0 µM; stronger effect = higher value
The panel holds about 79,000 compounds, 15% with a hit somewhere; the sample as a whole holds those more often.
Your answer is read as %, so omit the unit and give the number.

Q: Recorded growth inhibition for O=C1/C(=C/c2ccc(Cl)c(Cl)c2)CNC/C1=C\c1ccc(Cl)c(Cl)c1 , please?
Result: 29

Q: // query: CCCCCCCCCCCNC=O
Result: -41

Q: Then this compound: CC(CN(C)C)C(=O)/C=C/c1ccc(Cl)c(Cl)c1 (stereo not given)
Result: 20

Q: Another compound: O=C(O)C1CCCCC1c1c2ccc(=O)cc-2oc2cc(O)ccc12 (stereo not given)
Result: 9

Q: Request: COc1ccc2nc(CCc3ccccc3)ccc2c1
Result: -27

Q: Param item: O=C(/C=C/c1ccsc1)c1cccs1
Result: 22

Q: Note, next up: CCS(=O)(=O)Nc1ccc(Nc2c3ccccc3nc3ccccc23)c(OC)c1
Result: 86

Q: How about COc1c2c(c3c(c1CCC(=O)O)OC(C)(C)C=C3)OC(C)(C)C=C2 ?
Result: 19

Q: Do the same for O=C1CSC(c2ccccc2)N1c1ccc(-c2ccc(-n3c(-c4ccccc4)nc4ccccc4c3=O)cc2)cc1 (stereo not given) please
Result: 2

Q: Again, but for COC1=CCC23C(=O)C=CC(=O)C2(C1)C(=O)c1ccccc1C3=O (stereo not given)
Result: 12

Q: Next up: O=C(Nc1ccc(Cl)cc1)c1cc2cc(N=Nc3ccccc3Cl)ccc2oc1=O
Result: 38

Q: Would you kindly repeat that for CCN(CC)CCCNc1ccc([N+](=O)[O-])c2nc3ccc(OC)cc3c(NCCCN(CC)CC)c12 ?
Result: -1

Q: Do the same for O=C(NCCCCN(CCCNC(=O)C(F)(F)F)Cc1ccccc1)C(F)(F)F please
Result: 40

Q: Now consider CC(C(=O)N1C(=O)N(C(=O)C(C)C(O)c2ccccc2)C2CCCCC21)C(O)c1ccccc1 (stereo not given) and answer again.
Result: -7

Q: Continue with COc1ccc2cc3c4cc5c(cc4cc[n+]3cc2c1OC)OCO5
Result: 88

Q: Please answer likewise for CCOC(=O)C(Cc1c2ccccc2cc2ccccc12)(NC(C)=O)C(=O)OCC
Result: -22

Q: # repeat for C=CCNC1=C2C[C@@H](C)C[C@H](OC)[C@H](O)[C@@H](C)/C=C(\C)[C@H](OC(N)=O)[C@@H](OC)/C=C\C=C(/C)C(=O)NC(=CC1=O)C2=O
Result: 64

Q: Here is the next compound: Clc1nc(Cl)nc(Nc2cccc3ccccc23)n1
Result: 52

Q: Next compound up: CCCCN(CCC#N)c1ccc(/C=C/c2ccnc3ccccc23)cc1
Result: -6

Q: Same for O=C1C(/C=C/c2ccc(Cl)cc2)=NNC2N1N=C1NC(=O)C3(NN12)c1ccccc1-c1ccccc13 (stereo not given)
Result: -21

Q: Entry CCOc1ccc(N)c(S)c1 please
Result: 34

Q: // repeat for Clc1ccc(/C(=C\c2ccccc2)Cn2ccnc2)cc1 and report
Result: 54

Q: Another: CC1=NN(C(=O)c2ccccc2O)C(=O)/C1=C/c1ccco1
Result: 64

Q: Now try COc1cc(OC)c(CSCC(NC(=O)OCC2c3ccccc3-c3ccccc32)C(=O)O)c(OC)c1 (stereo not given) .
Result: 43

Q: Follow-up item: COc1ccc2cc(C(C)C(=O)N3CCOC3=O)ccc2c1 (stereo not given)
Result: 15

Q: Subsequent entry: OC1(c2ccccc2)C2CC=CC2C1(c1ccccc1)c1ccccc1 (stereo not given)
Result: 12

Q: Record: O=C1Nc2ccc(Br)cc2C1=Nc1cccnc1
Result: -36

Q: Same lookup for COc1ccc(/C=C2\SC(=S)N(/C=C3\C(=O)N(c4ccccc4)N=C3C)C2=O)cc1OC , please.
Result: 9

Q: // next record O=C1c2ccccc2C(=O)c2sc(Nc3ccccc3Cl)nc21
Result: 78

Q: Next entry: Nc1ccc2cc(Br)ccc2c1Br
Result: 8

Q: Same question for c1ccc2c(c1)ccn2CCc1c[nH]c2ccccc12 please.
Result: -5

Q: # repeat for CC(=O)/C=C/c1cccc([N+](=O)[O-])c1
Result: 8

Q: Consider next the compound c1ccc([P+](CCN2Cc3ccccc3C2)(c2ccccc2)c2ccccc2)cc1 in the same way.
Result: 61

Q: Param item: Cc1oc2ccccc2c(=O)c1Cn1nnc2ccccc21
Result: -1

Q: Next compound up: CO[C@@]1([C@@H](Cl)c2ccccc2)C(=O)N(C)/C(=C\c2ccccc2)C(=O)N1C
Result: 9

Q: Moving on to COc1ccc(-c2cc(-c3cc(C)cc(Cl)c3O)nc3[nH]c(=S)[nH]c(=S)c23)cc1
Result: 6

Q: Same thing, different compound: Cc1ccc(S(=O)(=O)NC(=O)C2C(=O)CC3(CCCCC3)CC2=O)cc1
Result: -23

Q: Could you do the same for O=C1CC(C(O)(C(F)(F)F)C(F)(F)Cl)CCC1C(O)(C(F)(F)F)C(F)(F)Cl (stereo not given) , please?
Result: 57

Q: Same thing, different compound: C=C(C(=O)OC)N1C(=O)CC(C)C1=O (stereo not given)
Result: 13

Q: Consider next the compound [N-]=[N+]=NC1(c2ccccc2)C(=O)Nc2ccccc2C1=O (stereo not given) in the same way.
Result: -20

Q: Do the same for COc1cc(C(=O)C=O)cc(OC)c1OC please
Result: 9

Q: Then what about the compound COc1ccccc1NC(=O)c1ccc(Cl)cc1 ?
Result: 8

Q: Also, Oc1ccc(C2(c3ccc(O)cc3)CCCC2)cc1 please.
Result: 34

Q: Now the same for CCOP(=O)(OCC)/C(C#N)=C/c1cccc(Oc2ccccc2)c1
Result: 42

Q: Entry CCN(CC)CCC(=O)Nc1ccc2sc3ccccc3c(=O)c2n1 please
Result: 85

----------
Test: NCI Yeast Anticancer Drug Screen. Data for the mlh1 strain (AID 171);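 note: 0% = growth of vehicle-treated control cultures of the same strain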
Conditions: S. cerevisiae mlh1 strain growth inhibition; at 33.0 µM
Procedure: Growth inhibition of yeast strains with defined genetic alterations is measured as a screen for potential anti-cancer activity. Selected strains with alterations in DNA damage repair or cell cycle control were exposed to compounds and growth inhibition was measured relative to vehicle treated controls. The strain used in this assay is mlh1
The panel holds about 79,000 compounds, 15% with a hit somewhere; the sample as a whole holds those more often. Active and inactive are the calls of the source. Cut-off read from the data, not from the text of the source: active = growth inhibition above about 70%; inactive = the rest.
Hi! Could you answer with just one of these? active, inactive

Q: Hello, I am checking results. What call was entered for Cc1ccc(C)c(C(=N)c2ccccc2Cc2ccccc2)c1 ?
Result: active

Q: Consider next the compound O=C1C=C(Br)C(=O)c2ccccc21 in the same way.
Result: active

Q: Can you check CCOC(=O)C(Cc1c2ccccc2cc2ccccc12)(NC(C)=O)C(=O)OCC next?
Result: inactive

Q: Would you mind doing O=C1c2cccc3cccc(c23)C(=O)N1CCNCCN1C(=O)c2cccc3cccc(c23)C1=O as well?
Result: inactive

Q: Subsequent entry: COc1cccc(/C=C2\S/C(=N/Nc3nc(-c4ccc([N+](=O)[O-])cc4)cs3)NC2=O)c1O
Result: inactive

Q: Would you mind doing O=C(O)CNC(c1ccccc1)(c1ccccc1)c1ccccc1 as well?
Result: active

----------
experiment: NCI Yeast Anticancer Drug Screen. Data for the rad50EPP+ strain (AID 151);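 note: 0% = growth of vehicle-treated control cultures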; details: S. cerevisiae rad50 mutant strain, at 33.0 µM, stronger effect = higher value
The panel holds about 79,000 compounds, 15% with a hit somewhere; the sample as a whole holds those more often.
Assign 1 to entries whose growth inhibition meets or exceeds 60%; assign 0 to the rest.

Q: Dear colleague, could you confirm whether CC(=O)/C=C/c1cccc([N+](=O)[O-])c1 has growth inhibition at or above 60%?
Result: 1

Q: What do you get for CC(C)(CN1CCCCC1)C(=O)/C=C/c1c(Cl)cccc1Cl ?
Result: 0

Q: Would you mind doing O=C(O)C1CCCCC1c1c2ccc(=O)cc-2oc2cc(O)ccc12 (stereo unspecified) as well?
Result: 0

Q: How about COc1ccc2c(c1)CCCC(Br)C2=O (stereo unspecified) ?
Result: 1

Q: Further, for C/C(=N/NC(=S)Nc1ccccc1C)c1ccccn1 ?
Result: 0

Q: Follow-up item: O=C(NCCNCCNC(=O)c1cc(-c2ccccc2)nc2ccccc12)c1cc(-c2ccccc2)nc2ccccc12
Result: 0

Q: Then this compound: CN(N=O)C(=O)Nc1ccc(C(=O)O)cc1
Result: 0

Q: Continue with CCCCOc1ccc2nc(C)cc(N=[N+]=[N-])c2c1
Result: 0

Q: Similarly, COc1cc([C@@H]2c3cc4c(cc3[C@@H](NC(=O)NO)[C@H]3COC(=O)[C@H]23)OCO4)cc(OC)c1O ?
Result: 0

Q: CCN(CC)C(=S)SC(=S)N(CC)CC , same question.
Result: 1

Q: Same question, OC(Cc1cccc2ccccc12)CN1CCC(c2ccccc2)CC1 (stereo unspecified) this time
Result: 0

Q: Now the same for Cc1nc2sc3c(c2c(=O)o1)CCCC3
Result: 0

Q: Follow-up entry: CC(C)Cc1ncc(CCCN=C(N)N)[nH]c1=O
Result: 0

Q: What do you get for CC1C(c2ccccc2)SC(=N)N1C (stereo unspecified) ?
Result: 0

Q: Then this compound: O=S(=O)(c1ccccc1)N1CN2CN(C1)CN(S(=O)(=O)c1ccccc1)C2
Result: 0

Q: Another compound to look at: c1ccc(-c2cc(C3CO3)c3ccccc3n2)cc1 (stereo unspecified)
Result: 0

Q: Further, for O=C(O)c1ccc2cc(Cl)c3ccccc3c2c1 ?
Result: 0

Q: Same read-out for O=[N+]([O-])c1ccc(S(=O)(=O)Cc2ccccc2)c([N+](=O)[O-])c1 ?
Result: 1

Q: Now consider CSc1nc(-c2ccccc2)nc(=[N+]2CCOCC2)s1 and answer again.
Result: 1

Q: Further, for O=C1c2ccccc2-c2cc3ccccc3c(=O)n21 ?
Result: 1

Q: Try this compound too: O=C(Cc1ccccc1)NNc1nc(NNC(=O)c2ccncc2)nc(Nc2ccc(Cl)cc2)n1
Result: 0

Q: Now the compound CCC(C)(C)c1ccc(Oc2ccccc2)c(N)c1
Result: 1

Q: Same read-out for Clc1ccc(/C(=C\c2ccccc2)Cn2ccnc2)cc1 ?
Result: 1

Q: Now try COc1ccc(C2CC(C)(N3CCCC3)Oc3cc4c(cc32)OCO4)cc1 (stereo unspecified) .
Result: 0

Q: Request: CCCCCCCCCCCNC=O
Result: 0

Q: Repeat with c1ccc2c(c1)N=C1CCCC3CCCC123 (stereo unspecified)
Result: 0

Q: Here is the next compound: O=C(NCCCCN(CCCNC(=O)C(F)(F)F)Cc1ccccc1)C(F)(F)F
Result: 0

Q: What about CC/C(=C(\c1ccccc1)c1ccc(OCC[N+](C)(C)C)cc1)c1ccccc1 ?
Result: 1

Q: What about CC(C)N(CCCNc1c2ccccc2nc2cccc([N+](=O)[O-])c12)C(C)C ?
Result: 1

Q: Please give the result for N#CC1OB(O)c2ccccc21 (stereo unspecified) too.
Result: 0

Q: Cool, now CCCCCCCCN1COCC(COc2ccccc2C)OC1 (stereo unspecified)
Result: 0

Q: # repeat for C[n+]1c(/C=C/c2ccc(/C=N/NC(=O)c3ccc(C(=O)N/N=C/c4ccc(/C=C/c5cn6ccccc6[n+]5C)cc4)cc3)cc2)cn2ccccc21
Result: 1

Q: How about this compound: OC1(c2ccccc2)C2CC=CC2C1(c1ccccc1)c1ccccc1 (stereo unspecified)
Result: 0

Q: Try this compound too: C[N+](C)([O-])CCCNc1c2ccccc2nc2cccc([N+](=O)[O-])c12
Result: 1

Q: Record: CC(C)OC(=O)NNc1c(Cl)cc(Cl)cc1Cl
Result: 1

Q: Item: O=C1C(=O)N(c2ccccc2)[C@@]2(c3ccccc3)C(=Nc3ccccc3)OC(c3ccccc3)=C12
Result: 0

Q: Follow-up item: COC(=O)/C(C#N)=C\NC(=S)C(N)=S
Result: 1

Q: Next compound up: O=C1CSC(c2ccccc2)N1c1ccc(-c2ccc(-n3c(-c4ccccc4)nc4ccccc4c3=O)cc2)cc1 (stereo unspecified)
Result: 0

Q: Param item: Nc1ccc(S(=O)(=O)Nc2nc3c(c(=O)[nH]2)CCCC3)cc1
Result: 1

Q: Same question for O=c1c2ccccc2nc(-c2cccc([N+](=O)[O-])c2)n1O please.
Result: 0

Q: // repeat for COC1/C=C\C=C(/C)C(=O)NC2=CC(=O)C(=O)C(=C2O)CC(C)CC(OC)C(O)C(C)/C=C(\C)C1OC(N)=O (stereo unspecified) and report
Result: 0

Q: Also check COc1cc(NCCCCNCC(C)(C)C)c2ncccc2c1
Result: 0

Q: // next record S=C(NCc1ccccn1)N/N=C/c1ccccn1
Result: 1

Q: Let us now turn to N#CSCC1COc2ccccc2O1 (stereo unspecified)
Result: 1

Q: Would you mind doing CCCCCCCN1C(=O)c2ccccc2C1=O as well?
Result: 0

Q: Same for CCCCCCCSCC1C(=O)C23C(O)C1CCC2C12COC3(O)C(O)C1C(C)(C)CCC2O (stereo unspecified)
Result: 0

Sourced from PubChem BioAssay (NCI)
